Values compiled from paper PMC10343752.

Please consider the recorded IC50 for α-glucosidase from Saccharomyces cerevisiae (Saccharomyces cerevisiae, UniProt P53341) in what follows.
One number for each entry, in µM.

Provide reported IC50 for each item, in the same order as listed.
1. Cc1ccc(-c2c3n(c(=O)c4ccccc24)-c2ccccc2C3=O)cc1
2. COc1ccc(-c2c3n(c(=O)c4ccccc24)-c2ccccc2C3=O)cc1

1: 17.4; 2: 15.1

Provide reported IC50 for each item, in the same order as listed.
1. O=C1c2ccccc2-n2c1c(-c1ccccc1)c1ccc(F)cc1c2=O
2. Cc1ccccc1-c1c2n(c(=O)c3ccccc13)-c1ccccc1C2=O
3. Cc1ccc2c(c1)-n1c(c(-c3ccccc3)c3ccccc3c1=O)C2=O

7.97
22.3
17

Provide reported IC50 for each item, in the same order as listed.
1. O=C1c2ccc(Cl)cc2-n2c1c(-c1ccccc1)c1ccccc1c2=O
2. Cc1ccc2c(c1)-n1c(c(-c3ccccc3)c3cc(C)ccc3c1=O)C2=O
3. CN(C)c1ccc(-c2c3n(c(=O)c4ccccc24)-c2ccccc2C3=O)cc1
4. O=C1c2ccccc2-n2c1c(-c1ccc(Cl)cc1)c1ccccc1c2=O

9.25
41.2
40.9
14.7

---

Target: α-glucosidase (Saccharomyces cerevisiae, UniProt P53341)
Construct: purchased Sigma-Aldrich
Assay: CD spectra, secondary structure contents of α-glucosidase
Type: binding
Conditions: molar ratio [α-Glu]:[Comp.] 1:2
Procedure: CD spectra were also monitored to study the effect of compounds 9, 11, 13, 18, and 19 on the conformational changes of α-glucosidase. […] Compounds 9, 11, 13, 18, and 19 with different concentrations were added into α-glucosidase solution (31 μM) and incubated for 5 min, respectively, then the CD spectra of the mixture were recorded. […]
quantityName: β-Turn (%)
One number for each entry, in %.

Before answering, review these 2 worked examples.
O=C1c2ccccc2-n2c1c(-c1ccc3ccccc3c1)c1ccccc1c2=O [Compound 11] : 20.00
O=C1c2cc(Cl)ccc2-n2c1c(-c1ccccc1)c1ccccc1c2=O [Compound 13] : 19.40

Provide reported β-Turn for each item, in the same order as listed.
1. Cc1ccc2c(c1)-n1c(c(-c3ccccc3)c3cc(C)ccc3c1=O)C2=O [Compound 19]
2. O=C1c2ccccc2-n2c1c(-c1ccccc1)c1ccc(F)cc1c2=O [Compound 18]
3. CN(C)c1ccc(-c2c3n(c(=O)c4ccccc24)-c2ccccc2C3=O)cc1 [Compound 9]

1. 19.30
2. 19.30
3. 19.30

---

Target: α-glucosidase (Saccharomyces cerevisiae)
Construct: purchased Sigma-Aldrich
Test: CD spectra, secondary structure contents of α-glucosidase
Format: binding
Details: molar ratio [α-Glu]:[Comp.] 1:2
quantityName: Rndm Coil (%)
One number for each entry, in %.

Provide reported Rndm Coil for each item, in the same order as listed.
1. O=C1c2cc(Cl)ccc2-n2c1c(-c1ccccc1)c1ccccc1c2=O [Compound 13]
2. CN(C)c1ccc(-c2c3n(c(=O)c4ccccc24)-c2ccccc2C3=O)cc1 [Compound 9]
3. Cc1ccc2c(c1)-n1c(c(-c3ccccc3)c3cc(C)ccc3c1=O)C2=O [Compound 19]
4. O=C1c2ccccc2-n2c1c(-c1ccc3ccccc3c1)c1ccccc1c2=O [Compound 11]
5. O=C1c2ccccc2-n2c1c(-c1ccccc1)c1ccc(F)cc1c2=O [Compound 18]

1. 35.40
2. 34.60
3. 34.70
4. 35.60
5. 35.00

---

Would you mind telling me the reported β-Sheet of each entry?
Biological target: α-glucosidase (Saccharomyces cerevisiae, UniProt P53341)
Construct: purchased Sigma-Aldrich
Test: CD spectra, secondary structure contents of α-glucosidase
Assay type: binding
Details: molar ratio [α-Glu]:[Comp.] 1:1
Quick note: number first, unit second.

Before answering, review these 4 worked examples.
Cc1ccc2c(c1)-n1c(c(-c3ccccc3)c3cc(C)ccc3c1=O)C2=O [Compound 19] : 31.80%
O=C1c2ccccc2-n2c1c(-c1ccc3ccccc3c1)c1ccccc1c2=O [Compound 11] : 34.30%
O=C1c2ccccc2-n2c1c(-c1ccccc1)c1ccc(F)cc1c2=O [Compound 18] : 35.30%
CN(C)c1ccc(-c2c3n(c(=O)c4ccccc24)-c2ccccc2C3=O)cc1 [Compound 9] : 35.60%

Continue with the next compound.
Quick one: β-Sheet for O=C1c2cc(Cl)ccc2-n2c1c(-c1ccccc1)c1ccccc1c2=O [Compound 13] ?
40.60%

---

Target: α-glucosidase from Saccharomyces cerevisiae (Saccharomyces cerevisiae)
Sequence (P53341 whole entry): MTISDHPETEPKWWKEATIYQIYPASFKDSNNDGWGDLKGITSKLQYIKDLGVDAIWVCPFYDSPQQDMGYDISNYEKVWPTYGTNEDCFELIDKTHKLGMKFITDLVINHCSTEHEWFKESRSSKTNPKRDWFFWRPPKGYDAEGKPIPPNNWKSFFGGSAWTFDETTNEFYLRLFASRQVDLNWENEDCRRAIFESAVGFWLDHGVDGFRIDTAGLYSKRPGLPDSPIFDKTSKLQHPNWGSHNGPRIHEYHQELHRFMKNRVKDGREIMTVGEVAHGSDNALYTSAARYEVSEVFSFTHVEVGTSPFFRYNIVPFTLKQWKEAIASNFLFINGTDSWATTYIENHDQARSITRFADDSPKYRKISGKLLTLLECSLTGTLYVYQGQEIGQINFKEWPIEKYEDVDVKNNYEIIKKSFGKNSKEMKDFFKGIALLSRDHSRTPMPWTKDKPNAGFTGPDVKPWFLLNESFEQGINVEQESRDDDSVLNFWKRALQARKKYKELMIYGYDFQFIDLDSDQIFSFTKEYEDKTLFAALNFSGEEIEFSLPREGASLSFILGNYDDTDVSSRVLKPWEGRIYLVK
pIC50: −log10 of the molar value.
Kindly return Fulfilled if reported pIC50 is no lower than 5; return Not fulfilled if it is lower.

CCc1ccc(-c2c3n(c(=O)c4ccccc24)-c2ccccc2C3=O)cc1 [Compound 5] : Not fulfilled
O=C1c2ccccc2-n2c1c(-c1ccccc1)c1ccccc1c2=O [Compound 1] : Not fulfilled

Decide: pIC50 of O=C1c2ccccc2-n2c1c(-c1ccc3ccccc3c1)c1ccccc1c2=O [Compound 11] >= 5?
Fulfilled

---

Molecular target: α-glucosidase (Saccharomyces cerevisiae)
Criterion: Ki strictly less than 4 µM. Met: T. Not met: F.

Check out these entries, answers already filled in.
CN(C)c1ccc(-c2c3n(c(=O)c4ccccc24)-c2ccccc2C3=O)cc1 : F
Cc1ccc2c(c1)-n1c(c(-c3ccccc3)c3cc(C)ccc3c1=O)C2=O : F

Please check: Ki for `O=C1c2ccccc2-n2c1c(-c1ccccc1)c1ccc(F)cc1c2=O` , strictly under 4 µM or not?
F

Now consider `O=C1c2cc(Cl)ccc2-n2c1c(-c1ccccc1)c1ccccc1c2=O` .
T

Now consider `O=C1c2ccccc2-n2c1c(-c1ccc3ccccc3c1)c1ccccc1c2=O` .
T

---

Would you mind telling me the reported α-Helix of each entry?
Biological target: α-glucosidase (Saccharomyces cerevisiae, UniProt P53341)
Construct: purchased Sigma-Aldrich
Test: CD spectra, secondary structure contents of α-glucosidase
Format: binding
Conditions: molar ratio [α-Glu]:[Comp.] 1:2
Quick note: number first, unit second.

Before answering, review these 4 worked examples.
O=C1c2cc(Cl)ccc2-n2c1c(-c1ccccc1)c1ccccc1c2=O : 9.10%
O=C1c2ccccc2-n2c1c(-c1ccccc1)c1ccc(F)cc1c2=O : 11.20%
O=C1c2ccccc2-n2c1c(-c1ccc3ccccc3c1)c1ccccc1c2=O : 8.20%
CN(C)c1ccc(-c2c3n(c(=O)c4ccccc24)-c2ccccc2C3=O)cc1 : 13.00%

Continue with the next compound.
Quick one: α-Helix for `Cc1ccc2c(c1)-n1c(c(-c3ccccc3)c3cc(C)ccc3c1=O)C2=O` ?
11.50%

---

Molecular target: α-glucosidase (Saccharomyces cerevisiae, UniProt P53341)
Construct: purchased Sigma-Aldrich
Experiment: α-glucosidase inhibition kinetics (enzyme kinetics and Lineweaver-Burk substrate kinetics)
Format: biochemical
Settings: inhibition kinetics constant
quantityName: Kis (µM)
Answers are plain numbers, in µM.

Before answering, review these 4 worked examples.
CN(C)c1ccc(-c2c3n(c(=O)c4ccccc24)-c2ccccc2C3=O)cc1 : 96.19
Cc1ccc2c(c1)-n1c(c(-c3ccccc3)c3cc(C)ccc3c1=O)C2=O : 42.30
O=C1c2ccccc2-n2c1c(-c1ccc3ccccc3c1)c1ccccc1c2=O : 14.57
O=C1c2ccccc2-n2c1c(-c1ccccc1)c1ccc(F)cc1c2=O : 12.34

Quick one: Kis for `O=C1c2cc(Cl)ccc2-n2c1c(-c1ccccc1)c1ccccc1c2=O` ?
11.65

---

Target: α-glucosidase (Saccharomyces cerevisiae, UniProt P53341)
Construct: purchased Sigma-Aldrich
Experiment: CD spectra, secondary structure contents of α-glucosidase
Assay type: binding
Conditions: molar ratio [α-Glu]:[Comp.] 1:2
quantityName: β-Sheet (%)
Answers are plain numbers, in %.

Cc1ccc2c(c1)-n1c(c(-c3ccccc3)c3cc(C)ccc3c1=O)C2=O : 34.20
CN(C)c1ccc(-c2c3n(c(=O)c4ccccc24)-c2ccccc2C3=O)cc1 : 31.90
O=C1c2cc(Cl)ccc2-n2c1c(-c1ccccc1)c1ccccc1c2=O : 39.60

Provide reported β-Sheet for each item, in the same order as listed.
1. O=C1c2ccccc2-n2c1c(-c1ccc3ccccc3c1)c1ccccc1c2=O
2. O=C1c2ccccc2-n2c1c(-c1ccccc1)c1ccc(F)cc1c2=O

1. 34.70
2. 35.00

---

Target: α-glucosidase (Saccharomyces cerevisiae, UniProt P53341)
Construct: purchased Sigma-Aldrich
Experiment: CD spectra, secondary structure contents of α-glucosidase
Assay type: binding
Conditions: molar ratio [α-Glu]:[Comp.] 1:3
quantityName: β-Sheet (%)
One number for each entry, in %.

Cc1ccc2c(c1)-n1c(c(-c3ccccc3)c3cc(C)ccc3c1=O)C2=O : 34.40
CN(C)c1ccc(-c2c3n(c(=O)c4ccccc24)-c2ccccc2C3=O)cc1 : 31.70
O=C1c2ccccc2-n2c1c(-c1ccccc1)c1ccc(F)cc1c2=O : 35.00

Provide reported β-Sheet for each item, in the same order as listed.
1. O=C1c2ccccc2-n2c1c(-c1ccc3ccccc3c1)c1ccccc1c2=O
2. O=C1c2cc(Cl)ccc2-n2c1c(-c1ccccc1)c1ccccc1c2=O

1: 35.20; 2: 34.60
